- SYSTEM NAME: human dopamine D4.4 receptor (Homo sapiens)
- Sequence (P21917 whole entry): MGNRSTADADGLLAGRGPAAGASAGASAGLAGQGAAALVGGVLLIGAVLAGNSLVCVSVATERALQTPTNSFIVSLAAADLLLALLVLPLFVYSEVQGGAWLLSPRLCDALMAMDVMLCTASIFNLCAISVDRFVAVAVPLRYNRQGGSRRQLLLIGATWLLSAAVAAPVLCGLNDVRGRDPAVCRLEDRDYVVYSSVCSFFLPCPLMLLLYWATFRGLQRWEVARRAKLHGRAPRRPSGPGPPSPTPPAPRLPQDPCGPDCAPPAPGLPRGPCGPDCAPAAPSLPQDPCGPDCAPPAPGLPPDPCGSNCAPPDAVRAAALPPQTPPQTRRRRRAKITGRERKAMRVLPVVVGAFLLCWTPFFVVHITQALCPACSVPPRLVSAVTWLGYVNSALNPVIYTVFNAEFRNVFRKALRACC
- METHOD SUMMARY: Human dopamine D4.4 receptor radioligand binding assay (Eurofins)
- CONDITION NOTES: 10 μM; [3H]Spiperone binding; Eurofins Discovery
% Inhibition at 10 μM D4.4: recorded values
PROPERTY: % Inhibition at 10 μM D4.4 (%)

>  <COMPOUND>
O=C(c1ccc(Cl)cc1Cl)N1CC2(CCN(Cc3c[nH]c4cc(F)ccc34)CC2)C1 [Compound 19]

>  <VALUE REPORTED>
92

$$$$
>  <COMPOUND>
Cc1ccc(C(=O)N2CC3(CCN(Cc4ccc(Cl)c(Cl)c4)CC3)C2)cc1C [Compound 9]

>  <VALUE REPORTED>
91

$$$$
>  <COMPOUND>
Cc1ccc(C(=O)N2CC3(CCN(Cc4c[nH]c5cc(F)ccc45)CC3)C2)cc1C [Compound 5]

>  <VALUE REPORTED>
94

$$$$
>  <COMPOUND>
Cc1cccc(C(=O)N2CC3(CCN(Cc4c[nH]c5cc(F)ccc45)CC3)C2)c1 [Compound 32]

>  <VALUE REPORTED>
92

$$$$
>  <COMPOUND>
Cc1ccc(C(=O)N2CC3(CCN(Cc4c[nH]c5cc(F)ccc45)CC3)C2)cc1 [Compound 29]

>  <VALUE REPORTED>
99

$$$$
>  <COMPOUND>
O=C(c1ccc2c(c1)OCO2)N1CC2(CCN(Cc3c[nH]c4cc(F)ccc34)CC2)C1 [Compound 20]

>  <VALUE REPORTED>
95

$$$$
>  <COMPOUND>
Cc1ccc(S(=O)(=O)N2CC3(CCN(Cc4c[nH]c5cc(F)ccc45)CC3)C2)cc1 [Compound 34]

>  <VALUE REPORTED>
94

$$$$
>  <COMPOUND>
Cc1ccccc1C(=O)N1CC2(CCN(Cc3c[nH]c4cc(F)ccc34)CC2)C1 [Compound 33]

>  <VALUE REPORTED>
93

$$$$
